Molecular target: T1, IL-23 receptor on the surface of HEK-Blue IL-23 cells (UniProt Q5VWK5 24-629, limits assumed)
T1 sequence (looked up): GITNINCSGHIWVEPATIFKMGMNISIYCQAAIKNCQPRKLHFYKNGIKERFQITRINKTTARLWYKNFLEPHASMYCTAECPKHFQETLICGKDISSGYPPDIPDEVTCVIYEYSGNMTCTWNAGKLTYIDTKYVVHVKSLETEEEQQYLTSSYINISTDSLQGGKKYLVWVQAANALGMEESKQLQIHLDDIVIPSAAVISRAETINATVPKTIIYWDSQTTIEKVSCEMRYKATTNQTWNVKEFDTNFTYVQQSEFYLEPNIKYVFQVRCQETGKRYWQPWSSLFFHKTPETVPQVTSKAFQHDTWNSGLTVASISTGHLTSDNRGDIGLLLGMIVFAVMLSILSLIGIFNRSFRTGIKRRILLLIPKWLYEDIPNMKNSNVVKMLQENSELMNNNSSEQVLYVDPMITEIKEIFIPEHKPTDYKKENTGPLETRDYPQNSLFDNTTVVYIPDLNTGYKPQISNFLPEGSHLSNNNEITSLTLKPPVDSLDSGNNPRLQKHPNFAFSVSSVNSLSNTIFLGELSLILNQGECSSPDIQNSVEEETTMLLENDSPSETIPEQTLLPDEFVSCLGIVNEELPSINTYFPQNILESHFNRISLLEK
Assay: cell-based or functional assay
Starred links: 1 amine or outer side, 2 acyl side, 3 side chain; linkers in the order of their positions; H or OH if unused. Positions of bridges follow the written chain, without caps; N, C: chain ends. Non-standard residues stand in square brackets, D forms with d. No end group written: not given here. Yde = (2S)-2-amino-3-[4-[2-(dimethylamino)ethoxy]phenyl]propanoic acid, CN(C)CCOc1ccc(C[C@H](N[*:1])C(=O)[*:2])cc1; Trp(7-Me) = Cc1cccc2c(C[C@H](N)C(=O)O)c[nH]c12; 2Nal = N[C@@H](Cc1ccc2ccccc2c1)C(=O)O; εLys = N[C@@H](CCCCN[*:1])C(=O)[*:2]; 3Pal = N[C@@H](Cc1cccnc1)C(=O)O; Dad = desamino-aspartamic acid; Lys(Me) = CNCCCC[C@H](N)C(=O)O; αMeL = CC(C)C[C@](C)(N)C(=O)O; NMeC = CN[C@@H](CS)C(=O)O; Thp = NC1(C(=O)O)CCOCC1; Aib = CC(C)(N)C(=O)O; Ava = NCCCCC(=O)O; Sar = CNCC(=O)O
READOUT TYPE: pSTAT3 (nM)
The response must be a number in nM with no trailing unit.

Here's what some known entries look like.
BINDER	pSTAT3 (nM)
[Ava]C[εLys](Ac)WQC[Yde][2Nal][Thp]EA[dL]-NH2 (lactam N-10; disulfide 2-6; also: Cys2 carboxyl bonded to Lys3 epsilon-NH2 (isopeptide), Lys3 alpha-N acetylated) [Compound of SEQ ID NO: 33]	53.8
[Ava]CNT[Trp(7-Me)]K(Ac)C[Yde][2Nal][Thp]EN[3Pal][Sar]-NH2 (lactam N-11; disulfide 2-7; SMILES CC(=O)NCCCC[C@@H]1NC(=O)[C@H](Cc2c[nH]c3c(C)cccc23)NC(=O)[C@H]([C@@H](C)O)NC(=O)[C@H](CC(N)=O)NC(=O)[C@@H]2CSSC[C@H](NC1=O)C(=O)N[C@@H](Cc1ccc(OCCN(C)C)cc1)C(=O)N[C@@H](Cc1ccc3ccccc3c1)C(=O)NC1(CCOCC1)C(=O)N[C@H](C(=O)N[C@@H](CC(N)=O)C(=O)N[C@@H](Cc1cccnc1)C(=O)N(C)CC(N)=O)CCC(=O)NCCCCC(=O)N2) [Compound of SEQ ID NO: 35]	0.34
[Ava]CNT[Trp(7-Me)]QC[Yde][2Nal][Aib]ESH-NH2 (lactam N-11; disulfide 2-7; SMILES Cc1cccc2c(C[C@@H]3NC(=O)[C@H]([C@@H](C)O)NC(=O)[C@H](CC(N)=O)NC(=O)[C@@H]4CSSC[C@H](NC(=O)[C@H](CCC(N)=O)NC3=O)C(=O)N[C@@H](Cc3ccc(OCCN(C)C)cc3)C(=O)N[C@@H](Cc3ccc5ccccc5c3)C(=O)NC(C)(C)C(=O)N[C@H](C(=O)N[C@@H](CO)C(=O)N[C@@H](Cc3c[nH]cn3)C(N)=O)CCC(=O)NCCCCC(=O)N4)c[nH]c12) [Compound of SEQ ID NO: 43]	1.31

Pending binder:
The measured pSTAT3 (nM) associated with [Dad][NMeC][εLys](Ac)[Trp(7-Me)]LC[Yde][2Nal][αMeL][Lys(Me)]N[3Pal][Sar]-NH2 (lactam (positions not given here); disulfide 2-6; not fully specified (bridges); printed as Dad(§1)-Nmc(§3)(@2)-K[aAc](@3)-Wim-L-C(@2)-Yde-Nal-Mle-Kme(§1)-N-Pal-Sar-NH2; also: Nmc2 carboxyl joined to epsilon-NH2 of Lys3 (isopeptide bond), Lys3 alpha-N acetylated) [Compound of SEQ ID NO: 69] reads 3.07
